Data provenance: ChEMBL document CHEMBL3627637

Listing: inhibition of selected compounds
System: dengue virus type 2
Test: Inhibition of Dengue virus (serotype 2) NS2B-NS3 protease at 50 uM preincubated with protein for 15 mins followed by Abz-Nle-Lys-Arg-Arg-Ser-3-(NO2)Tyr substrate addition measured by continuous fluorometric analysis
Non-standard residues stand in square brackets, D forms with d. Residues, ends and D or L forms follow the SMILES beside them. *: point of attachment. Phe(4-CH2NH2) = NCc1ccc(C[C@H](N)C(=O)O)cc1; Phe(4-NH2) = Nc1ccc(C[C@H](N)C(=O)O)cc1; 4Pal = N[C@@H](Cc1ccncc1)C(=O)O; Phg = N[C@H](C(=O)O)c1ccccc1; Bz = O=C(c1ccccc1)*

# COMPOUND, UNIT_OF_MEASURE, inhibition
records = [
    ("N=C(N)c1cccc(C[C@H](NC(=O)CCc2ccccc2)C(=O)N[C@@H](CCCCN)C(=O)N[C@H](C(N)=O)c2ccccc2)c1", "%", 94),
    ("N=C(N)Nc1cccc(C[C@H](NC(=O)c2ccccc2)C(=O)N[C@@H](CCCCN)C(=O)N[C@H](C(N)=O)c2ccccc2)c1", "%", 97.9),
    ("CC(=O)Nc1ccc(C[C@H](NC(=O)c2ccccc2)C(=O)N[C@@H](CCCCN)C(=O)N[C@H](C(N)=O)c2ccccc2)cc1 (Bz-[Phe(4-NH2)](Ac)-Lys-[Phg]-NH2)", "%", 34.8),
    ("NCCCC[C@H](NC(=O)[C@H](Cc1ccc(CN)cc1)NC(=O)c1ccccc1)C(=O)N[C@H](C(N)=O)c1ccccc1 (Bz-[Phe(4-CH2NH2)]-Lys-[Phg]-NH2)", "%", 90.5),
    ("NCCCC[C@H](NC(=O)[C@H](Cc1ccncc1)NC(=O)c1ccccc1)C(=O)N[C@H](C(N)=O)c1ccccc1 (Bz-[4Pal]-Lys-[Phg]-NH2)", "%", 12),
    ("N=C(N)c1cccc(C[C@H](NC(=O)c2ccc(C(F)(F)F)cc2)C(=O)N[C@@H](CCCCN)C(=O)N[C@H](C(N)=O)c2ccccc2)c1", "%", 95.8),
]
